STUDY TARGET: UniProtKB P28223
Sequence (P28223 whole entry): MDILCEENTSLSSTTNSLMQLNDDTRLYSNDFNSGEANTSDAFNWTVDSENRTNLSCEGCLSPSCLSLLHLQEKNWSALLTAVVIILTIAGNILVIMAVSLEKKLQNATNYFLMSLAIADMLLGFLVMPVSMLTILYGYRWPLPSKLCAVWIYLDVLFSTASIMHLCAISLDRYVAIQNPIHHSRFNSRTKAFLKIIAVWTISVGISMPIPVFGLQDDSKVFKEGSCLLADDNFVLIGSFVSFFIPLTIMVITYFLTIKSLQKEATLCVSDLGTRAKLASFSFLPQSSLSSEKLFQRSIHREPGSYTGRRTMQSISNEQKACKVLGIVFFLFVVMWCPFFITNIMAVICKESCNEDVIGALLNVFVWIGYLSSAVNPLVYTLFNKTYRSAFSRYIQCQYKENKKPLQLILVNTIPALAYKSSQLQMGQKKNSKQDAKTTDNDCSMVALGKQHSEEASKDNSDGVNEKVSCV
EXPERIMENTAL PROTOCOL: Antagonist activity at 5HT2A receptor (unknown origin) at 10 uM by radioligand binding assay relative to control
PARAMETER: inhibition (%)

Past entries and their recorded results:
>  <CHEM SMILES>
O=c1cc(CCCc2cccc(Cl)c2)oc2cccc(O)c12

>  <SCALE UNIT>
%

>  <inhibition>
13.9

$$$$
>  <CHEM SMILES>
O=c1cc(CCCc2cccc(F)c2)oc2cccc(O)c12

>  <SCALE UNIT>
%

>  <inhibition>
8.4

$$$$
>  <CHEM SMILES>
N#Cc1cccc(CCCc2cc(=O)c3c(O)cccc3o2)c1

>  <SCALE UNIT>
%

>  <inhibition>
7.2

$$$$

P = O=c1cc(CCCc2ccc(OC(F)(F)F)cc2)oc2cccc(O)c12
Q = Cc1cccc(CCCc2cc(=O)c3c(O)cccc3o2)c1
R = O=c1cc(CCCc2ccc(Cl)cc2)oc2cccc(O)c12
Q. Put the entries in order of inhibition, starting with the largest number. Dear reader, please state the labels in the requested order.
A. Q, R, P

----------
STUDY TARGET: 5-hydroxytryptamine receptor 2B (Homo sapiens)
Sequence (P41595 whole entry): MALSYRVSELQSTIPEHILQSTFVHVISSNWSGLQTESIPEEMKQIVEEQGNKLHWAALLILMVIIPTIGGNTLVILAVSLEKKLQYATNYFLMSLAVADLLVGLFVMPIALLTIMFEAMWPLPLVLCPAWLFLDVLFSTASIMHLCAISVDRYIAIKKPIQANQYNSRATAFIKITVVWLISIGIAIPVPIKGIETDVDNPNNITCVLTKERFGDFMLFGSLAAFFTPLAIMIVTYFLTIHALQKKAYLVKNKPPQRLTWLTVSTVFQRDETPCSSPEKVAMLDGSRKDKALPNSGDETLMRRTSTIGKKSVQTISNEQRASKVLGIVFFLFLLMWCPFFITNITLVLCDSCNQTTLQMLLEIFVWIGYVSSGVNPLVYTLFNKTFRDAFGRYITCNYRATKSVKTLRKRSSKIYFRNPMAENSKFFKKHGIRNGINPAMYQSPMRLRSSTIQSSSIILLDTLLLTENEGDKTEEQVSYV
EXPERIMENTAL PROTOCOL: Antagonist activity at 5-HT2B receptor (unknown origin) assessed as inhibition of 5HT-indued response by calcium mobilization assay
Format: functional
PARAMETER: pIC50
In plain terms, pIC50 is the concentration in mol/L turned into minus its base-10 logarithm.

Q. Any idea what pIC50 was measured for N#Cc1cccc(CCCc2cc(=O)c3c(O)cccc3o2)c1 ?
A. 5.20

----------
STUDY TARGET: 5-hydroxytryptamine receptor 2C (Homo sapiens) (UniProt P28335)
Sequence (P28335 whole entry): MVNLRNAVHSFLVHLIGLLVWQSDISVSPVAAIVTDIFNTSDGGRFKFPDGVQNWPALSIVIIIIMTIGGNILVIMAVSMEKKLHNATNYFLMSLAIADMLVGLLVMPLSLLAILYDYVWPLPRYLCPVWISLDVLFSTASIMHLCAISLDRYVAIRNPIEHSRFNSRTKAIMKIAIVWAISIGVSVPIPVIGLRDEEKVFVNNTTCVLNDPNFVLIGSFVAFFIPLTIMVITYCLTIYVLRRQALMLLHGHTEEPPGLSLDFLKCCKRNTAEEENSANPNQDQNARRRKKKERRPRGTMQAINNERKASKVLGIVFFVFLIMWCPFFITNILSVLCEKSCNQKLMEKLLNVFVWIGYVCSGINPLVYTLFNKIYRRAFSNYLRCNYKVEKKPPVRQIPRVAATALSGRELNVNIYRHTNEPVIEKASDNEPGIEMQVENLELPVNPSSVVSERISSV
EXPERIMENTAL PROTOCOL: Antagonist activity at 5HT2C receptor (unknown origin) 10 uM by radioligand binding assay relative to control
PARAMETER: inhibition (%)

>  <CHEM SMILES>
O=c1cc(CCCc2ccc(OC(F)(F)F)cc2)oc2cccc(O)c12

>  <inhibition / %>
32.6

$$$$

a = N#Cc1cccc(CCCc2cc(=O)c3c(O)cccc3o2)c1
b = O=c1cc(CCCc2ccc(F)cc2)oc2cccc(O)c12
Q. Hey, between a and b which has a smaller measured inhibition? Which one? Tell me its label.
A. a

----------
STUDY TARGET: 5-hydroxytryptamine receptor 2C (Homo sapiens)
EXPERIMENTAL PROTOCOL: Antagonist activity at 5HT2C receptor (unknown origin) 10 uM by radioligand binding assay relative to control
RUN PARAMETERS: filed as antagonist
PARAMETER: inhibition (%)

Past entries and their recorded results:
>  <CHEM SMILES>
Cc1ccc(CCCc2cc(=O)c3c(O)cccc3o2)cc1

>  <STUDY TARGET>
5-hydroxytryptamine receptor 2C (Homo sapiens)

>  <inhibition / %>
51.2

$$$$
>  <CHEM SMILES>
COc1cccc(CCCc2cc(=O)c3c(O)cccc3o2)c1

>  <STUDY TARGET>
5-hydroxytryptamine receptor 2C (Homo sapiens)

>  <inhibition / %>
67.4

$$$$
>  <CHEM SMILES>
O=c1cc(CCCc2cccc(F)c2)oc2cccc(O)c12

>  <STUDY TARGET>
5-hydroxytryptamine receptor 2C (Homo sapiens)

>  <inhibition / %>
44.4

$$$$
>  <CHEM SMILES>
O=c1cc(CCCc2cccc(Cl)c2)oc2cccc(O)c12

>  <STUDY TARGET>
5-hydroxytryptamine receptor 2C (Homo sapiens)

>  <inhibition / %>
44.8

$$$$
>  <CHEM SMILES>
O=c1cc(CCCc2cccc(C(F)(F)F)c2)oc2cccc(O)c12

>  <STUDY TARGET>
5-hydroxytryptamine receptor 2C (Homo sapiens)

>  <inhibition / %>
43.5

$$$$

a = Cc1cccc(CCCc2cc(=O)c3c(O)cccc3o2)c1
b = COc1ccc(CCCc2cc(=O)c3c(O)cccc3o2)cc1
Q. Lab note: check whether a or b shows the higher recorded inhibition. Which one? Tell me its label.
A. b
(b: 87.9%, a: 59.4%)
